B1: LINE1-full (parent)
chain: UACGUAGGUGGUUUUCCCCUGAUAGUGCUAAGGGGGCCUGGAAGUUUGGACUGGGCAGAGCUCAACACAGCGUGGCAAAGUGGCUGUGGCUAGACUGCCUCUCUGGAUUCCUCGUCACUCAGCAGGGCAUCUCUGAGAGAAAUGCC

variants of: B1; assay: self-cleavage, relative activity (ratio to wild type); higher = more cleavage; in vitro, sequencing; the parent is a self-cleaving ribozyme
self-cleavage class ranges: bin A (below 0.3), bin B (0.3 to below 1), bin C (1 or more)

### Prompt Bin this entry: U81C U96A
### Response bin A

### Prompt Bin this entry: U12A U45G
### Response bin C

### Prompt Bin this entry: U9C U130C
### Response bin C

### Prompt Bin this entry: U29C A50G
### Response bin B

### Prompt Bin this entry: A59C U87A
### Response bin A

### Prompt Bin this entry: U47A A59G
### Response bin A

### Prompt Bin this entry: U52C U96C
### Response bin A

### Prompt Bin this entry: A22G U52C
### Response bin C

### Prompt Bin this entry: U52C C146U
### Response bin C

### Prompt Bin this entry: C84G U104C
### Response bin A

### Prompt Bin this entry: U87C G97A
### Response bin A

### Prompt Bin this entry: A67U C90G
### Response bin A

### Prompt Bin this entry: U46C U62C
### Response bin A

### Prompt Bin this entry: U96C A138G
### Response bin A

### Prompt Bin this entry: U29C G126A
### Response bin B

### Prompt Bin this entry: U20C A121G
### Response bin C

### Prompt Bin this entry: U102A A117U
### Response bin C

### Prompt Bin this entry: U108C U112C
### Response bin C

### Prompt Bin this entry: A59G G126A
### Response bin A

### Prompt Bin this entry: A43G C95U
### Response bin A

### Prompt Bin this entry: G74A A138G
### Response bin C

### Prompt Bin this entry: G135U A140U
### Response bin C

### Prompt Bin this entry: U73C U130C
### Response bin C

### Prompt Bin this entry: A69G U91C
### Response bin A

### Prompt Bin this entry: U29A A43G
### Response bin C

### Prompt Bin this entry: U12G A77C
### Response bin B

### Prompt Bin this entry: U13C U85C
### Response bin A

### Prompt Bin this entry: `G72C`
### Response bin C

### Prompt Bin this entry: U73C U96G
### Response bin A

### Prompt Bin this entry: A50G C128U
### Response bin B

### Prompt Bin this entry: U45C A140G
### Response bin C

### Prompt Bin this entry: A50U U102C
### Response bin C

### Prompt Bin this entry: A59G G86A
### Response bin A

### Prompt Bin this entry: C63U U91G
### Response bin A

### Prompt Bin this entry: U20C A136C
### Response bin C

### Prompt Bin this entry: G25A A136G
### Response bin C

### Prompt Bin this entry: C3U A136G
### Response bin C

### Prompt Bin this entry: A57G U132A
### Response bin C

### Prompt Bin this entry: U109C A129G
### Response bin C

### Prompt Bin this entry: A50U A65G
### Response bin A

### Prompt Bin this entry: U15C A121G
### Response bin C

### Prompt Bin this entry: C3A G122A
### Response bin C

### Prompt Bin this entry: U14A U115C
### Response bin C

### Prompt Bin this entry: U14C A79G
### Response bin B

### Prompt Bin this entry: U45C A117C
### Response bin C

### Prompt Bin this entry: U47C U143A
### Response bin C

### Prompt Bin this entry: U46G A107G
### Response bin C

### Prompt Bin this entry: U1C G4U
### Response bin B

### Prompt Bin this entry: A6G C37A
### Response bin B

### Prompt Bin this entry: U45G U47C
### Response bin C

### Prompt Bin this entry: G60A U143A
### Response bin A

### Prompt Bin this entry: C28G A65U
### Response bin A

### Prompt Bin this entry: U91G A121G
### Response bin B

### Prompt Bin this entry: U14A U26C
### Response bin C

### Prompt Bin this entry: U23A A30G
### Response bin C

### Prompt Bin this entry: U14C U134A
### Response bin B

### Prompt Bin this entry: U112C U115A
### Response bin C

### Prompt Bin this entry: A2G U112G
### Response bin B

### Prompt Bin this entry: U104C U115A
### Response bin A

### Prompt Bin this entry: U29A C145U
### Response bin B

### Prompt Bin this entry: G60U A117G
### Response bin A

### Prompt Bin this entry: C113U A136G
### Response bin C

### Prompt Bin this entry: U81A U130A
### Response bin C

### Prompt Bin this entry: U29A A65U
### Response bin A

### Prompt Bin this entry: U13G U115C
### Response bin C

### Prompt Bin this entry: `A79C`
### Response bin C

### Prompt Bin this entry: U39C A117U
### Response bin C

### Prompt Bin this entry: A78C A121G
### Response bin C

### Prompt Bin this entry: U104C A138U
### Response bin C

### Prompt Bin this entry: U14C C63A
### Response bin A

### Prompt Bin this entry: `U5C`
### Response bin C

### Prompt Bin this entry: A67G U108C
### Response bin B

### Prompt Bin this entry: U115C U143A
### Response bin C

### Prompt Bin this entry: U115C C128U
### Response bin C

### Prompt Bin this entry: U96C U108C
### Response bin A

### Prompt Bin this entry: A57U A92U
### Response bin A

### Prompt Bin this entry: U81A C146A
### Response bin C

### Prompt Bin this entry: U13C C17A
### Response bin C

### Prompt Bin this entry: U23C G144A
### Response bin C

### Prompt Bin this entry: A92G A94U
### Response bin A

### Prompt Bin this entry: A79U U112C
### Response bin C

### Prompt Bin this entry: U47A U85C
### Response bin A

### Prompt Bin this entry: `G70C`
### Response bin A

### Prompt Bin this entry: U5A U132A
### Response bin C

### Prompt Bin this entry: A24G G55U
### Response bin A

### Prompt Bin this entry: U23A U29A
### Response bin C

### Prompt Bin this entry: C17A A43G
### Response bin B

### Prompt Bin this entry: U26A A57C
### Response bin A

### Prompt Bin this entry: U9C A31G
### Response bin B

Measured values drawn from the RNAGym collection of RNA variant scans (doi:10.7554/elife.90254) for this set.
